selectivity ratio at 96 h values by entry
# test_protocol: Selectivity index, ratio of IC50 for cytotoxicity against human NFF cells to IC50 for antimalarial activity against synchronous ring stage Plasmodium falciparum 3D7 infected in human Erythrocyte assessed as inhibition of parasite growth incubated for 96 hrs
# Assay type: toxicity, cell-based
# applied_conditions: read-out: Ratio IC50

Reference set (5 entries):
O=S(=O)(c1nnc(N2CCOCC2)o1)C1CCCCCC1: > 769
N#CC1CCN(c2nnc(S(=O)(=O)C3CCCCC3)o2)CC1: > 200
O=S(=O)(c1nnc(N2CCC3(CC2)COC3)o1)C1CCCCC1: > 1020
O=S(=O)(c1nnc(N2CC3(CCOCC3)C2)o1)C1CCCCC1: > 909
Cc1ccc(C)c(CS(=O)(=O)c2nnc(N3CCOCC3)o2)c1: 24

Could you tell me which selectivity ratio at 96 h is on file for COC1CCN(c2nnc(S(=O)(=O)C3CCCCC3)o2)CC1 ? > 145
